- Tested on: T cell blast formation in human blood
- assayComment: In vitro inhibition of T cell blast formation in human blood (human whole blood blast formation, PHA stimulated, flow cytometry)
- Type: cell-based
- settings: Test Dose 1 × 10^−7 (unit not given), 72 hours, mean where multiple measurements
- Description: Cells are collected after a 72 hours culture period at 37° C., supernatant is removed by centrifugation and red blood cells are lysed by a hypotonic buffer. The remaining white blood cells are collected in PBS containing propidium iodide. The blast formation is analyzed using a benchtop flow cytometer (Cytoron, Ortho) equipped with an argon-ion laser. […] When multiple measurements were performed, a mean value was calculated for the percentage inhibition of T cell blast formation.
Param threshold (80%) applies to % Inhibition of T cell blast formation; output YES when value >= threshold, NO when value < threshold.

Confirm if % Inhibition of T cell blast formation reported for the molecule O=C(Nc1ccc(C(=NO)c2ccncc2)cc1)C1CC(c2cccnc2)=NO1 (stereo not drawn) is 80% or above.
NO

Confirm if % Inhibition of T cell blast formation reported for the molecule COc1ccc(OC)c(C(=NO)c2ccc(NC(=O)C3CC(c4cccnc4)=NO3)cc2)c1 (stereo not drawn) is 80% or above.
NO

Confirm if % Inhibition of T cell blast formation reported for the molecule O.O=C(c1ccccc1)c1ccc(NC(=O)[C@@H]2CC(c3cccnc3)=NO2)cc1 is 80% or above.
NO

Confirm if % Inhibition of T cell blast formation reported for the molecule O=C(Nc1ccc(C(=NO)c2ccccc2)cc1)C1CC(c2cccnc2)=NO1 (single isomer, unassigned) is 80% or above.
YES

Confirm if % Inhibition of T cell blast formation reported for the molecule COc1ccccc1C(=NO)c1ccc(NC(=O)C2CC(c3cccnc3)=NO2)cc1 (stereo not drawn) is 80% or above.
YES

Confirm if % Inhibition of T cell blast formation reported for the molecule O=C(c1ccncc1)c1ccc(NC(=O)C2CC(c3cccnc3)=NO2)cc1 (stereo not drawn) is 80% or above.
NO

* * *

- Test system: T cell blast formation in human blood
- assayComment: In vitro inhibition of T cell blast formation in human blood (human whole blood blast formation, PHA stimulated, flow cytometry)
- Assay type: cell-based
- settings: Test Dose 1 × 10^−6 (unit not given), 72 hours, mean where multiple measurements
recordedMetric: % Inhibition of T cell blast formation (%)
Answer with a number only, understood to be in %.

Value lookup for % Inhibition of T cell blast formation; key = CC(C#N)(c1ccc(F)cc1)c1ccc(NC(=O)C2CC(c3cccnc3)=NO2)cc1F (stereo not shown) [Compound 39]
67

Value lookup for % Inhibition of T cell blast formation; key = CC(C)OC(c1ccccc1)c1ccc(NC(=O)C2CC(c3cccnc3)=NO2)cc1.Cl (stereo not shown) [Compound 418]
75

Value lookup for % Inhibition of T cell blast formation; key = O=C(Nc1ccc(-c2noc(-c3ccccc3)n2)cc1)C1CC(c2cccnc2)=NO1 (stereo not shown) [Compound 452]
79

Value lookup for % Inhibition of T cell blast formation; key = NC(=O)c1ccccc1NC(c1ccccc1)c1ccc(NC(=O)C2CC(c3cccnc3)=NO2)cc1 (stereo not shown) [Compound 192]
72

Value lookup for % Inhibition of T cell blast formation; key = O=C(Nc1ccc(C(NCc2ccncc2)c2ccccc2)cc1)C1CC(c2cccnc2)=NO1 (stereo not shown) [Compound 97]
58

Value lookup for % Inhibition of T cell blast formation; key = O=C(c1ccc(NC(=O)C2CC(c3cccnc3)=NO2)cc1)c1ccc(F)cc1F (stereo not shown) [Compound 398]
87

Value lookup for % Inhibition of T cell blast formation; key = O=C(NCCc1ccco1)c1ccc(NC(=O)C2CC(c3cccnc3)=NO2)cc1 (stereo not shown) [Compound 268]
58

Value lookup for % Inhibition of T cell blast formation; key = CNC(=O)c1ccc(CNC(=O)c2ccc(NC(=O)C3CC(c4cccnc4)=NO3)cc2)cc1 (stereo not shown) [Compound 427]
80

Value lookup for % Inhibition of T cell blast formation; key = COc1ccc(/C=C/C(=O)c2ccc(NC(=O)C3CC(c4cccnc4)=NO3)cc2)c(C)c1C (racemic) [Compound 479]
85

Value lookup for % Inhibition of T cell blast formation; key = O=C(NCc1ccc(F)cc1)c1ccc(NC(=O)C2CC(c3cccnc3)=NO2)cc1 (stereo not shown) [Compound 270]
71

Value lookup for % Inhibition of T cell blast formation; key = CC(O)(c1ccccc1)c1ccc(NC(=O)C2CC(c3cccnc3)=NO2)cc1 (stereo not shown) [Compound 510]
76

Value lookup for % Inhibition of T cell blast formation; key = COc1ccc(CNC(=O)c2ccc(NC(=O)C3CC(c4cccnc4)=NO3)cc2)c(OC)c1 (stereo not shown) [Compound 274]
71

Value lookup for % Inhibition of T cell blast formation; key = CN(C)C(=O)c1ccc(CNC(=O)c2ccc(NC(=O)C3CC(c4cccnc4)=NO3)cc2)cc1 (stereo not shown) [Compound 426]
82

Value lookup for % Inhibition of T cell blast formation; key = O=C(Nc1ccc(C(Nc2cccc(F)c2)c2ccccc2)cc1)C1CC(c2cccnc2)=NO1 (stereo not shown) [Compound 214]
62

Value lookup for % Inhibition of T cell blast formation; key = O=C(Nc1ccc(C(=NO)c2ccc3c(c2)OCO3)cc1)C1CC(c2cccnc2)=NO1 (stereo not shown) [Compound 429]
86

Value lookup for % Inhibition of T cell blast formation; key = O=C(NCCc1ccccc1)c1ccc(NC(=O)C2CC(c3cccnc3)=NO2)cc1 (stereo not shown) [Compound 258]
59

* * *

- Test system: T cell blast formation in human blood
- assayComment: In vitro inhibition of T cell blast formation in human blood (human whole blood blast formation, PHA stimulated, flow cytometry)
- Format: cell-based
- settings: Test Dose 1 × 10^−6 (unit not given), 72 hours, mean where multiple measurements
recordedMetric: % Inhibition of T cell blast formation (%)
Answer with a number only, understood to be in %.

Value lookup for % Inhibition of T cell blast formation; key = Cn1ncc2ccc(CNC(c3ccccc3)c3ccc(NC(=O)C4CC(c5cccnc5)=NO4)cc3)cc21 (centres unmarked)
44

Value lookup for % Inhibition of T cell blast formation; key = Nc1nc(-c2ccccc2)c(C(c2ccccc2)c2ccc(NC(=O)C3CC(c4cccnc4)=NO3)cc2)s1 (centres unmarked)
39

Value lookup for % Inhibition of T cell blast formation; key = O=C(c1ccc(NC(=O)C2CC(c3cccnc3)=NO2)cc1)c1cccc(F)c1 (centres unmarked)
83

Value lookup for % Inhibition of T cell blast formation; key = O=C(Nc1ccc(C(NC2CC2)c2ccccc2)cc1)C1CC(c2cccnc2)=NO1 (centres unmarked)
33

Value lookup for % Inhibition of T cell blast formation; key = COC(=O)OC(C#N)(c1ccccc1)c1ccc(NC(=O)C2CC(c3cccnc3)=NO2)cc1 (centres unmarked)
81

Value lookup for % Inhibition of T cell blast formation; key = O=C(Nc1ccc(C(O)c2ccccn2)cc1)C1CC(c2cccnc2)=NO1 (single isomer, unassigned)
74

Value lookup for % Inhibition of T cell blast formation; key = C#CC(O)(c1ccccc1)c1ccc(NC(=O)C2CC(c3cccnc3)=NO2)cc1 (racemic)
73

Value lookup for % Inhibition of T cell blast formation; key = O=C(Nc1cccnc1)c1ccc(NC(=O)C2CC(c3cccnc3)=NO2)cc1 (centres unmarked)
59

* * *

- Tested on: T cell blast formation in human blood
- assayComment: In vitro inhibition of T cell blast formation in human blood (human whole blood blast formation, PHA stimulated, flow cytometry)
- Type: cell-based
- settings: Test Dose 1 × 10^−6 (unit not given), 72 hours, mean where multiple measurements
For each of the compounds below, state its % Inhibition of T cell blast formation.
Answer with a number only, understood to be in %.

Value lookup for % Inhibition of T cell blast formation; key = Cc1cccc(NC(c2ccccc2)c2ccc(NC(=O)C3CC(c4cccnc4)=NO3)cc2)c1C (centres unmarked)
42

Value lookup for % Inhibition of T cell blast formation; key = O=C(Nc1ccc(-c2nc(-c3ccccc3)no2)cc1)C1CC(c2cccnc2)=NO1 (centres unmarked)
61

Value lookup for % Inhibition of T cell blast formation; key = O=C(NCc1cccc(C(F)(F)F)c1)c1ccc(NC(=O)C2CC(c3cccnc3)=NO2)cc1 (centres unmarked)
53

Value lookup for % Inhibition of T cell blast formation; key = CC(=O)OCC(C#N)(c1ccccc1)c1ccc(NC(=O)C2CC(c3cccnc3)=NO2)cc1 (centres unmarked)
85

Value lookup for % Inhibition of T cell blast formation; key = O=C(NCc1cccs1)c1ccc(NC(=O)C2CC(c3cccnc3)=NO2)cc1 (centres unmarked)
64

Value lookup for % Inhibition of T cell blast formation; key = O=C(CCc1ccccc1)c1ccc(NC(=O)C2CC(c3cccnc3)=NO2)cc1 (centres unmarked)
67

Value lookup for % Inhibition of T cell blast formation; key = COC(c1ccccc1)c1ccc(NC(=O)C2CC(c3cccnc3)=NO2)cc1.Cl (centres unmarked)
89

Value lookup for % Inhibition of T cell blast formation; key = CC(C)(NC(=O)c1ccc(NC(=O)C2CC(c3cccnc3)=NO2)cc1)c1ccccc1 (centres unmarked)
51

* * *

- Test system: T cell blast formation in human blood
- assayComment: In vitro inhibition of T cell blast formation in human blood (human whole blood blast formation, PHA stimulated, flow cytometry)
- Assay type: cell-based
- settings: Test Dose 1 × 10^−6 (unit not given), 72 hours, mean where multiple measurements
recordedMetric: % Inhibition of T cell blast formation (%)
Answer with a number only, understood to be in %.

Notebook: pull reported % Inhibition of T cell blast formation for T cell blast formation in human blood, entry O=C(Nc1ccc(C(O)(c2ccccc2)c2ccccn2)cc1)C1CC(c2cccnc2)=NO1 (single isomer, unassigned) [Compound 68]
61

Notebook: pull reported % Inhibition of T cell blast formation for T cell blast formation in human blood, entry CN1CCC(CNC(c2ccccc2)c2ccc(NC(=O)C3CC(c4cccnc4)=NO3)cc2)CC1 (stereo not shown) [Compound 103]
82

Notebook: pull reported % Inhibition of T cell blast formation for T cell blast formation in human blood, entry COc1cccc(OC)c1C(=O)c1ccc(NC(=O)C2CC(c3cccnc3)=NO2)cc1 (stereo not shown) [Compound 397]
82

Notebook: pull reported % Inhibition of T cell blast formation for T cell blast formation in human blood, entry O=C(NCc1cnc2ccccc2c1)c1ccc(NC(=O)C2CC(c3cccnc3)=NO2)cc1 (stereo not shown) [Compound 291]
78

Entry source: patent US7414048B2
